Target: human TLR8 (Homo sapiens, UniProt Q9NR97)
Sequence (Q9NR97 27-1041): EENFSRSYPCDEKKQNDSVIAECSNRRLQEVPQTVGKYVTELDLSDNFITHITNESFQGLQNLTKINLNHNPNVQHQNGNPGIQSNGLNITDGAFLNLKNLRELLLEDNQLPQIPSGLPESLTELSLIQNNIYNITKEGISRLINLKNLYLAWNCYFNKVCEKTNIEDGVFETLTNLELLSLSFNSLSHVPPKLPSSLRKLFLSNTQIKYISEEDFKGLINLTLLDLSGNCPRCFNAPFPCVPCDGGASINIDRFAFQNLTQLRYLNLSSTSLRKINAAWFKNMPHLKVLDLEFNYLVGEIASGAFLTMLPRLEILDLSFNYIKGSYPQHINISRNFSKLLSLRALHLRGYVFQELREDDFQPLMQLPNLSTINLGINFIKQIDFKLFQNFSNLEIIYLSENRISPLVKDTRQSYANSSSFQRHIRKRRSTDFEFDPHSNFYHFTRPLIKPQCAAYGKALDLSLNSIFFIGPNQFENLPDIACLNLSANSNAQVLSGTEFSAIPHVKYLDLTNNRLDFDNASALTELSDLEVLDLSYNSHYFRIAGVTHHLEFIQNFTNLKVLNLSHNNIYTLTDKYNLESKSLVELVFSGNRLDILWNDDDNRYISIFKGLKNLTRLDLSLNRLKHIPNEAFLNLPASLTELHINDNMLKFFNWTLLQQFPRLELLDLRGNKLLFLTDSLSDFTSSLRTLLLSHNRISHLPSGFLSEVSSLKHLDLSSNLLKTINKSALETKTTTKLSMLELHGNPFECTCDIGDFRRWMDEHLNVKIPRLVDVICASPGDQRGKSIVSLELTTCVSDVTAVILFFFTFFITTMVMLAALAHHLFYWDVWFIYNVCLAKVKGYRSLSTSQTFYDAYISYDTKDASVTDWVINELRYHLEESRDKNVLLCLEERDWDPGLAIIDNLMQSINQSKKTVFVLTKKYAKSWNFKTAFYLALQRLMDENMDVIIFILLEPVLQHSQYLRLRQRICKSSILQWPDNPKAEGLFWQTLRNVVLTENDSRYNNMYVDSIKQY
Experiment: HEK-Blue hTLR8 SEAP reporter gene agonist assay
Conditions: HEK-Blue hTLR8 cells, 16 to 22 hours incubation
In plain terms, low EC50, meaning strictly below 60 nM, gives Satisfied, and everything else gives Not satisfied.

CCC[C@@H](CO)Nc1nc(N)nc2ccn(Cc3ccc(CN4CCN(CCN)CC4)cc3OC)c(=O)c12; Satisfied
CCC[C@@H](C)Nc1nc(N)nc2ccn(Cc3ccc(C(=O)N4CCN(CCO)CC4)cc3OC)c(=O)c12; Satisfied
CCCCNc1nc(N)nc2ccn(Cc3ccc(C(=O)N4CC5CC(C4)N5)cc3)c(=O)c12; Satisfied
CCCC(C)Nc1nc(N)nc2ccn(Cc3ccc(CN4CCCC4)cc3)c(=O)c12 (stereo not drawn); Not satisfied

**Query** Regarding CCCCOC(=O)OC[C@H](CCC)Nc1nc(N)nc2ccn(Cc3ccc(CN4CCN(C)CC4)cc3OC)c(=O)c12 , kindly confirm whether its EC50 is beneath 60 nM.
**Result** Not satisfied

**Query** Regarding CCCC(CCO)Nc1nc(N)nc2ccn(Cc3ccc(CN4CCCC4)cc3)c(=O)c12 (stereo not drawn) , kindly confirm whether its EC50 is beneath 60 nM.
**Result** Satisfied
